Attribute: EC50
TARGET UNDER TEST: Urotensin-2 receptor (Homo sapiens)
Sequence (Q9UKP6 whole entry): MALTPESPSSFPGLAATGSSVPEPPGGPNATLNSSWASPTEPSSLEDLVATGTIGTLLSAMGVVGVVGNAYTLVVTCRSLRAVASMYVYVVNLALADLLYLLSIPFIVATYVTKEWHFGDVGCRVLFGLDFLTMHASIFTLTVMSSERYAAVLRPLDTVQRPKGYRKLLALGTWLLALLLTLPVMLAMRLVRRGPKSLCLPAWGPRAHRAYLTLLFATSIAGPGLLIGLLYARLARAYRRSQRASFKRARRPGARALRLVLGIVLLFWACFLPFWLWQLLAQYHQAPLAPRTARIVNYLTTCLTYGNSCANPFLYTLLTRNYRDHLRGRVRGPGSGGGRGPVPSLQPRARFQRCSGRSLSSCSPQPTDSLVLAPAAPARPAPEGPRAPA
MEASUREMENT DESCRIPTION: Agonist activity at human UT receptor expressed in HEK293 cells co-expressing Gq-polycistronic BRET biosensor assessed as induction of Gq activation measured for 5 mins by luminescence detection based BRET assay
Format: functional, cell-based

- CPD SMILES: "CC(C)[C@H](NC(=O)[C@@H]1CSSC[C@H](NC(=O)[C@@H](N)CC(=O)O)C(=O)N[C@H](Cc2ccc(I)cc2)C(=O)N[C@@H](Cc2c[nH]c3ccccc23)C(=O)N[C@@H](CCCCN)C(=O)N[C@@H](Cc2ccc(O)cc2)C(=O)N1)C(=O)O"
  EC50: "46.8 nM"
- CPD SMILES: "CC(C)[C@H](NC(=O)[C@@H]1CSSC[C@H](NC(=O)[C@H](C)N)C(=O)N[C@@H](Cc2ccc(I)cc2)C(=O)N[C@@H](Cc2c[nH]c3ccccc23)C(=O)N[C@@H](CCCCN)C(=O)N[C@@H](Cc2ccc(O)cc2)C(=O)N1)C(=O)O"
  EC50: "10.7 nM"
- CPD SMILES: "CC(C)[C@H](NC(=O)[C@@H]1CSSC[C@H](NC(=O)[C@H](C)N)C(=O)N[C@@H](Cc2ccc(C#Cc3ccccc3)cc2)C(=O)N[C@@H](Cc2c[nH]c3ccccc23)C(=O)N[C@@H](CCCCN)C(=O)N[C@@H](Cc2ccc(O)cc2)C(=O)N1)C(=O)O"
  EC50: "27.5 nM"
- CPD SMILES: "CC(C)[C@H](NC(=O)[C@@H]1CSSC[C@H](NC(=O)[C@H](C)N)C(=O)N[C@@H](Cc2ccccc2)C(=O)N[C@@H](Cc2c[nH]c3ccccc23)C(=O)N[C@@H](CCCCN)C(=O)N[C@@H](Cc2ccc(O)cc2)C(=O)N1)C(=O)O"
  EC50: "3.63 nM"
- CPD SMILES: "CC(C)[C@H](NC(=O)[C@@H]1CSSC[C@H](NC(=O)[C@H](C)N)C(=O)N[C@H](Cc2ccc(-c3ccccc3)cc2)C(=O)N[C@@H](Cc2c[nH]c3ccccc23)C(=O)N[C@@H](CCCCN)C(=O)N[C@@H](Cc2ccc(O)cc2)C(=O)N1)C(=O)O"
  EC50: "3550 nM"
- CPD SMILES: "CC(C)[C@H](NC(=O)[C@@H]1CSSC[C@H](NC(=O)[C@H](C)N)C(=O)N[C@@H](Cc2ccc(-c3ccccc3)cc2)C(=O)N[C@@H](Cc2c[nH]c3ccccc23)C(=O)N[C@@H](CCCCN)C(=O)N[C@@H](Cc2ccc(O)cc2)C(=O)N1)C(=O)O"
  EC50: "15.1 nM"
- CPD SMILES: "CC(C)[C@H](NC(=O)[C@@H]1CSSC[C@H](NC(=O)[C@@H](N)CC(=O)O)C(=O)N[C@@H](Cc2ccc(I)cc2)C(=O)N[C@@H](Cc2c[nH]c3ccccc23)C(=O)N[C@@H](CCCCN)C(=O)N[C@@H](Cc2ccc(O)cc2)C(=O)N1)C(=O)O"
  EC50: "7.08 nM"
- CPD SMILES: "CC(C)[C@H](NC(=O)[C@@H]1CSSC[C@H](NC(=O)[C@H](C)N)C(=O)N[C@H](Cc2ccc(C#Cc3ccccc3)cc2)C(=O)N[C@@H](Cc2c[nH]c3ccccc23)C(=O)N[C@@H](CCCCN)C(=O)N[C@@H](Cc2ccc(O)cc2)C(=O)N1)C(=O)O"
  EC50: "617 nM"
- CPD SMILES: "CC(C)[C@H](NC(=O)[C@@H]1CSSC[C@H](NC(=O)[C@H](C)N)C(=O)N[C@H](Cc2ccc(I)cc2)C(=O)N[C@@H](Cc2c[nH]c3ccccc23)C(=O)N[C@@H](CCCCN)C(=O)N[C@@H](Cc2ccc(O)cc2)C(=O)N1)C(=O)O"
  EC50: "53.7 nM"

Reference source: ChEMBL document CHEMBL4196183
